Assay Remarks: Potency of the drug was evaluated by comparison with Lidocain; potency = ED50 of Lidocaine /ED50 of compound.
Type: functional
Attribute Measured: Potency

Consider the reported Potency for these compounds:
* Cc1cc(C)c(NC(=O)CC23CCCN2CCC3)c(C)c1 | 1.22
* Cc1cccc(C)c1NC(=O)CC12CCCN1CCC2 | 1.51
* CCN(CC)CC(=O)Nc1c(C)cccc1C | 1
* Cc1cc(C)cc(NC(=O)CC23CCCN2CCC3)c1 | 0.69
* Cc1cccc(NC(=O)CC23CCCN2CCC3)c1C | 0.56

Q: Specify Potency for "COc1ccc(OC)c(NC(=O)CC23CCCN2CCC3)c1" and stop.
A: 0.44

Q: Supply measured Potency of "O=C(CC12CCCN1CCC2)Nc1ccccc1Br" in your reply.
A: 0.76

Q: Please look at this compound and report its Potency: "Cc1ccc(NC(=O)CC23CCCN2CCC3)cc1C"
A: 0.47

Q: Give Potency for "CCc1cccc(CC)c1NC(=O)CC12CCCN1CCC2"
A: 1.41

Q: Check the records and state Potency for "COc1ccc(NC(=O)CC23CCCN2CCC3)cc1"
A: 0.6

Q: Could you please provide reported Potency for "Cc1ccc(C)c(NC(=O)CC23CCCN2CCC3)c1" ? Thanks!
A: 0.5

---

Recorded Ratio, one value per entry.
Assay Remarks: Ratio of LD50 to ED50 evaluated for its antiarrhythmic potency
Format: functional, Heart

Take a look at these entries with their results.
• Cc1cc(C)cc(NC(=O)CC23CCCN2CCC3)c1 = 6.83
• Cc1cc(C)c(NC(=O)CC23CCCN2CCC3)c(C)c1 = 9.09

Q: Fill in reported Ratio for this entry: "O=C(CC12CCCN1CCC2)Nc1ccccc1Br"
A: 7.54

Q: Quick one: give measured Ratio for "COc1ccc(OC)c(NC(=O)CC23CCCN2CCC3)c1"
A: 2.26

Q: Provide one value: measured Ratio of "Cc1ccc(NC(=O)CC23CCCN2CCC3)cc1C"
A: 7.36

Q: Fill in reported Ratio for this entry: "Cc1cccc(NC(=O)CC23CCCN2CCC3)c1C"
A: 7.33

Q: Output Ratio of "COc1ccc(NC(=O)CC23CCCN2CCC3)cc1"
A: 4.8

---

Assay Remarks: Ratio of LD50 to ED50 evaluated for its antiarrhythmic potency
Assay type: functional, Heart
Collected Ratio values appear next to each entry.
Enter a number only.

Guide cases for Ratio, answers given:
• Nc1ccccc1NC(=O)CC12CCCN1CCC2 = 6.33
• Cc1ccc(C)c(NC(=O)CC23CCCN2CCC3)c1 = 5.56

Now examine the next entry.
Q: # return recorded Ratio for entry "CCc1cccc(CC)c1NC(=O)CC12CCCN1CCC2"
A: 9.93
